Target: human SGLT1 (Homo sapiens)
Sequence (P13866 1-664): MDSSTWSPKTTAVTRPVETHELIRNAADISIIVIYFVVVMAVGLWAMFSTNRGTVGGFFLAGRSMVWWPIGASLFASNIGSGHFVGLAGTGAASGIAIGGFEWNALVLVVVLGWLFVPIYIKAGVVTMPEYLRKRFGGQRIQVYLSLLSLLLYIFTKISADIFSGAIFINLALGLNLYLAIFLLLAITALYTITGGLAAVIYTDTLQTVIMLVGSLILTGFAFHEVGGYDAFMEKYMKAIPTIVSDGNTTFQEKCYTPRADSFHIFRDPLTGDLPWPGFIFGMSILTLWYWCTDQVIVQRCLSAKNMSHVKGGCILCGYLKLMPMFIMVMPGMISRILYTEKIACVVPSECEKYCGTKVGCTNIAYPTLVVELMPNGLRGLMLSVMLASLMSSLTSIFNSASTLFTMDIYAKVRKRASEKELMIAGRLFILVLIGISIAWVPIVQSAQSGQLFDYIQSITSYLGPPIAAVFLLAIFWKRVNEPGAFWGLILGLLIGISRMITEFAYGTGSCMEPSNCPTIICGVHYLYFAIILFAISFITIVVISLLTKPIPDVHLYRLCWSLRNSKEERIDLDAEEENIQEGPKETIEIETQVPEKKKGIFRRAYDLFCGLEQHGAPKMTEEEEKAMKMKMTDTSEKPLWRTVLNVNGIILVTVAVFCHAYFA
Assay: Assay for inhibitory effects on human SGLT1 activity (uptake of methyl-α-D-glucopyranoside)
Details: CS1-5-11D cells (CHO-K1 stably expressing human SGLT1); uptake of 1 mM 14C-labeled α-MG, 37° C., 1 hour
Reported values of IC50 for individual entries
Please reply with the bare figure in nM and do not write the unit itself.

*Q* Look up IC50: `OC[C@H]1O[C@@H](Oc2n[nH]c(C(F)(F)F)c2Cc2ccccc2OCc2ccccc2)[C@H](O)[C@@H](O)[C@@H]1O`
*A* 14

*Q* Look up IC50: `CC(C)c1[nH]nc(O[C@@H]2O[C@H](CO)[C@@H](O)[C@H](O)[C@H]2O)c1Cc1ccccc1OC1CCCCCC1`
*A* 194

*Q* Look up IC50: `CC(C)c1c(Cc2ccccc2OCc2ccccc2)c(O[C@@H]2O[C@H](CO)[C@@H](O)[C@H](O)[C@H]2O)nn1CCO`
*A* 8
